target.of.assay: Estrogen receptor (Homo sapiens) (UniProt P03372)
Sequence (P03372 whole entry, the tested form may be a part): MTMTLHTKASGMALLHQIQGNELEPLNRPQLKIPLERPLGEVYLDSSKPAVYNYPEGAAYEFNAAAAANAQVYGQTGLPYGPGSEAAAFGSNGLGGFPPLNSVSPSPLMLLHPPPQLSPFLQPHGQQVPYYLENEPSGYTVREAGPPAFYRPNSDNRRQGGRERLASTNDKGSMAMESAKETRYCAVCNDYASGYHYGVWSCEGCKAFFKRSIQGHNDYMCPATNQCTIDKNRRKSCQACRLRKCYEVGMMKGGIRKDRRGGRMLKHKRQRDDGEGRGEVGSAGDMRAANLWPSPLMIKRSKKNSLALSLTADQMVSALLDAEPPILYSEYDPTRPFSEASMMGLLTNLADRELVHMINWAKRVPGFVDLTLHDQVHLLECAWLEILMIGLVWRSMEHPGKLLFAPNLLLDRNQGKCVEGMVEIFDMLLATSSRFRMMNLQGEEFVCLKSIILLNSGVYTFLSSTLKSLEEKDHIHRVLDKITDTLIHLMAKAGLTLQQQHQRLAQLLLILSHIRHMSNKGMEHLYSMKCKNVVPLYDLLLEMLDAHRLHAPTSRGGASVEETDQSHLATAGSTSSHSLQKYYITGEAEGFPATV
method.description: Binding affinity to recombinant human GFP-fused ERalpha LBD (301 to 553 residues) expressed in Escherichia coli BL21(DE3) after 40 mins in presence of 17beta-estradiol by fluorescence polarization assay
experimental.context: in the assay text read “ERalpha LBD” for “GFP-fused ERalpha LBD”
Active and inactive are the calls of the source. The rule behind the calls is not given here. Bridge positions count the residues as written; N and C are the ends. Square brackets hold non-standard residues; d marks the D form. Side chains are listed from the residue outwards. Peptide text beside a SMILES is read from it. * marks the point of attachment. ξ: configuration not given here. FITC = O=C1OC2(c3ccc(O)cc3Oc3cc(O)ccc32)c2ccc(NC(=S)*)cc21; ξtBuAla = CC(C)(C)CC(N)C(=O)O; ξD = NC(CC(=O)O)C(=O)O; ξDap = NCC(N)C(=O)O; βAla = NCCC(=O)O
Your reply should match one of these outcome classes. Y for active, N for inactive

Here are 3 compounds together with their reported answers.
compound	class
CC[C@H](C)[C@@H]1NC(=O)C[C@H](NC(=O)[C@H](CCCNC(=N)N)NC(=O)CCNC(=S)Nc2ccc3c(c2)C(=O)OC32c3ccc(O)cc3Oc3cc(O)ccc32)C(=O)NCC(C(=O)N[C@@H](CCCNC(=N)N)C(=O)N[C@@H](CC(C)C)C(=O)N[C@@H](CC(C)C)C(=O)N[C@@H](CCC(N)=O)C(N)=O)NC(=O)C(CC(C)(C)C)NC1=O (some centres undefined)	Y
CC[C@H](C)[C@@H]1NC(=O)C(NC(=O)[C@H](CCCNC(=N)N)NC(=O)CCNC(=S)Nc2ccc3c(c2)C(=O)OC32c3ccc(O)cc3Oc3cc(O)ccc32)CNC(=O)C(CC(=O)N[C@@H](CCC(N)=O)C(=O)NC(CC(C)(C)C)C(=O)N[C@@H](CCCNC(=N)N)C(=O)NC(CC(C)(C)C)C(N)=O)NC(=O)C(CC(C)(C)C)NC1=O (stereo partly drawn) ({FITC-βAla}-R[ξDap]I[ξtBuAla][ξD]([Gln-ξtBuAla-Arg-ξtBuAla-NH2]); lactam 2-C)	N
CC[C@H](C)[C@@H]1NC(=O)C[C@H](NC(=O)[C@H](CCCNC(=N)N)NC(=O)CCNC(=S)Nc2ccc3c(c2)C(=O)OC32c3ccc(O)cc3Oc3cc(O)ccc32)C(=O)NCC(C(=O)N[C@@H](CCCNC(=N)N)C(=O)N[C@@H](CC(C)C)C(=O)NC(CC(C)(C)C)C(=O)N[C@@H](CCC(N)=O)C(N)=O)NC(=O)[C@H](CC(C)C)NC1=O (some centres undefined)	Y

Identify the outcome logged in this assay for the compound shown: CC[C@H](C)[C@@H]1NC(=O)C[C@H](NC(=O)[C@H](CCCNC(=N)N)NC(=O)CCNC(=S)Nc2ccc3c(c2)C(=O)OC32c3ccc(O)cc3Oc3cc(O)ccc32)C(=O)NCC(C(=O)N[C@@H](CCCNC(=N)N)C(=O)NC(CC(C)(C)C)C(=O)N[C@@H](CC(C)C)C(=O)N[C@@H](CCC(N)=O)C(N)=O)NC(=O)[C@H](CC(C)C)NC1=O (some centres undefined)
Y
